In this section, each of the variants is paired with its reported protein stability index.
B1: TRIM39 (parent)
chain: ERDFPCPVCRKTSRYRSLRPNRQL

- Variants of: B1
- Protocol Notes: protein stability index of a GFP-peptide fusion (GPS, HEK-293T) (PSI 1-6); higher = more stable;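 also: lentivirally expressed fusions sorted by FACS into six bins by GFP to DsRed ratio, PSI derived from sequencing read proportions per bin multiplied by bin number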
- Test Settings: c terminus: a fixed tail appended
Outcome Measure: protein stability index

Residue Sequence	Numeric Result
ERDFPCPVCRKTSRYRSLRPNRSL	2.17
ERDFPCPVCRKTSRYESLRPNRQL	2.54
ERDFPCPVCRKTSRYRSLRPNFQL	1.79
ERDFPCPVPRKTSRYRSLRPNRQL	2.92
ERDFWCPVCRKTSRYRSLRPNRQL	1.87
ERDFPCPVCRKYSRYRSLRPNRQL	1.7
ERDFPCPVCRKTSRYRSLRDNRQL	2.06
ERDFPCPVCRKTSRYRSLRRNRQL	4.09
ERDFPAPVCRKTSRYRSLRPNRQL	2.69
ERDFPCPVVRKTSRYRSLRPNRQL	3.26
ERDFPCPVCGKTSRYRSLRPNRQL	4.1
ERDFPCPVCRKTSRYRSLLPNRQL	2
ERDFPCPVCRKTSVYRSLRPNRQL	1.39
ERDFPHPVCRKTSRYRSLRPNRQL	3.61
ERDFPCPVCRKTLRYRSLRPNRQL	2.4
ERDFPCPVCRKTSRYRGLRPNRQL	2.15
ERDNPCPVCRKTSRYRSLRPNRQL	2.89
ERDFPCPGCRKTSRYRSLRPNRQL	2.75
ERDFPCPVCRKTSRYRSLEPNRQL	1.59
ERDFPCPVCRKTSRYRSLRPWRQL	2.53
ERDFPCPVCRPTSRYRSLRPNRQL	2.54
ERDVPCPVCRKTSRYRSLRPNRQL	2.39
